# % activity annotations
- subject.of.test: MuSK(h) (Homo sapiens)
- Construct: purchased Millipore
- Sequence (O15146 24-869): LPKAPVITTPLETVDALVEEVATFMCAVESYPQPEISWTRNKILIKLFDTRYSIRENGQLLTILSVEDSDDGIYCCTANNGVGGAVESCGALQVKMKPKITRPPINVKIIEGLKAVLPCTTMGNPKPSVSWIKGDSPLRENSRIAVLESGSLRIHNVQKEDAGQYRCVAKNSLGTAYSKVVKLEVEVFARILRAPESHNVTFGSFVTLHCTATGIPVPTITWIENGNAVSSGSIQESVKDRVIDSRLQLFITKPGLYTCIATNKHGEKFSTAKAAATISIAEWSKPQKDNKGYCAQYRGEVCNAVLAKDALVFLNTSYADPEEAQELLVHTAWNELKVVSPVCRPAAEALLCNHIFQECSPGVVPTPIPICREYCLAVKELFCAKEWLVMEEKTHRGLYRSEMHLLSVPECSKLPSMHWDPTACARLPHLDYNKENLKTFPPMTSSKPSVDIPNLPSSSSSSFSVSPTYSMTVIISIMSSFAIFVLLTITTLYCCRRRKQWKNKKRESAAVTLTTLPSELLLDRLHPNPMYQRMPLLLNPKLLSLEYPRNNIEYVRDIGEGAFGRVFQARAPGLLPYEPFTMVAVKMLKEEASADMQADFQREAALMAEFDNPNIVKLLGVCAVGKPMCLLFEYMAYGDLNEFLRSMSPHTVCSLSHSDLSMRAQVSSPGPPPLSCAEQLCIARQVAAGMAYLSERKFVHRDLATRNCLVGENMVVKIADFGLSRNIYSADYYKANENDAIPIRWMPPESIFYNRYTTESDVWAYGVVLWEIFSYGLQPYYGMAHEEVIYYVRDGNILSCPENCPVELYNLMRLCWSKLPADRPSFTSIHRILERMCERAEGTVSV
- procedure.summary: Kinase Profiling Assay
- Format: biochemical
- conditions: peptide 100 μM
- Method: Every kinase activity measurement was conducted in duplicate. Specifically, in these assays, a positively charged substrate is phosphorylated with a radiolabeled phosphate group from an ATP if the kinase is not inhibited by an inhibitor peptide. The positively charged substrate then is attracted to a negatively charged filter membrane, quantified with a scintillation counter, and compared to a 100% activity control. […]
No end group written: not given here.

A selection of reference data follows.
YARAAARQARAKALARQLGVAA [MMI-0100]	85%
HRRIKAWLKKIKALARQLGVAA (Mammal) [MMI-0500]	27%
FAKLAARLYRKALARQLGVAA [MMI-0300]	93%

Here's the next entry for you.
q: Identify measured % activity corresponding to KAFAKLAARLYRKALARQLGVAA [MMI-0400]
a: 93%

* * *

- subject.of.test: IKKα(h) (Homo sapiens)
- Construct: purchased Millipore
- Sequence (O15111 1-745): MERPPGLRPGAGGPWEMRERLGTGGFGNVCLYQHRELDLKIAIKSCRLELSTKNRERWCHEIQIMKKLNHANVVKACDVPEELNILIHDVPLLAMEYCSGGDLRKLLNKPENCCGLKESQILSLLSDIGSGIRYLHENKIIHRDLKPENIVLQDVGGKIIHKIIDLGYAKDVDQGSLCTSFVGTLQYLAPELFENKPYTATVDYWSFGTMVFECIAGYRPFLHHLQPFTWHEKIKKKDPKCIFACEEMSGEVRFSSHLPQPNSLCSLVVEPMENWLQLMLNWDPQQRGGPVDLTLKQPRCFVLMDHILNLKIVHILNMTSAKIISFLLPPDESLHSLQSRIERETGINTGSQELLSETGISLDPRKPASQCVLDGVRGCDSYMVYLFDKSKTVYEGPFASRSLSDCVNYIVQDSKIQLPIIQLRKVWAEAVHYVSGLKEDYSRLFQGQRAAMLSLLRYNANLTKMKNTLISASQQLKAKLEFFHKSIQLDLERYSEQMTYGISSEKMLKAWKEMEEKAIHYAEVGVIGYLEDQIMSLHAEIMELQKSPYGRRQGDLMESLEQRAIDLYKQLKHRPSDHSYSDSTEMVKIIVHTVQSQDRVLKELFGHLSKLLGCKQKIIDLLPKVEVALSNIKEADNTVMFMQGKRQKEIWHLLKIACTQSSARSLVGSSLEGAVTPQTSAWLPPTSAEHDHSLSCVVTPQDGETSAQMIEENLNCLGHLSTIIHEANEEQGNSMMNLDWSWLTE
- procedure.summary: Kinase Profiling Assay
- Assay type: biochemical
- conditions: peptide 100 μM
No end group written: not given here.
% activity: recorded values
Enter your answer as a number in %; do not include the unit.

# annotated cases, reported % activity shown
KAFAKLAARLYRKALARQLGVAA [MMI-0400]	87
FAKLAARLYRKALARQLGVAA [MMI-0300]	93
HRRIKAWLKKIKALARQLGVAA (Mammal) [MMI-0500]	50

q: Given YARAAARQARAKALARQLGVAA [MMI-0100] , respond with its % activity.
a: 108

* * *

List of % activity values.
- subject.of.test: Arg(h) (Homo sapiens)
- Sequence (P42684 whole entry): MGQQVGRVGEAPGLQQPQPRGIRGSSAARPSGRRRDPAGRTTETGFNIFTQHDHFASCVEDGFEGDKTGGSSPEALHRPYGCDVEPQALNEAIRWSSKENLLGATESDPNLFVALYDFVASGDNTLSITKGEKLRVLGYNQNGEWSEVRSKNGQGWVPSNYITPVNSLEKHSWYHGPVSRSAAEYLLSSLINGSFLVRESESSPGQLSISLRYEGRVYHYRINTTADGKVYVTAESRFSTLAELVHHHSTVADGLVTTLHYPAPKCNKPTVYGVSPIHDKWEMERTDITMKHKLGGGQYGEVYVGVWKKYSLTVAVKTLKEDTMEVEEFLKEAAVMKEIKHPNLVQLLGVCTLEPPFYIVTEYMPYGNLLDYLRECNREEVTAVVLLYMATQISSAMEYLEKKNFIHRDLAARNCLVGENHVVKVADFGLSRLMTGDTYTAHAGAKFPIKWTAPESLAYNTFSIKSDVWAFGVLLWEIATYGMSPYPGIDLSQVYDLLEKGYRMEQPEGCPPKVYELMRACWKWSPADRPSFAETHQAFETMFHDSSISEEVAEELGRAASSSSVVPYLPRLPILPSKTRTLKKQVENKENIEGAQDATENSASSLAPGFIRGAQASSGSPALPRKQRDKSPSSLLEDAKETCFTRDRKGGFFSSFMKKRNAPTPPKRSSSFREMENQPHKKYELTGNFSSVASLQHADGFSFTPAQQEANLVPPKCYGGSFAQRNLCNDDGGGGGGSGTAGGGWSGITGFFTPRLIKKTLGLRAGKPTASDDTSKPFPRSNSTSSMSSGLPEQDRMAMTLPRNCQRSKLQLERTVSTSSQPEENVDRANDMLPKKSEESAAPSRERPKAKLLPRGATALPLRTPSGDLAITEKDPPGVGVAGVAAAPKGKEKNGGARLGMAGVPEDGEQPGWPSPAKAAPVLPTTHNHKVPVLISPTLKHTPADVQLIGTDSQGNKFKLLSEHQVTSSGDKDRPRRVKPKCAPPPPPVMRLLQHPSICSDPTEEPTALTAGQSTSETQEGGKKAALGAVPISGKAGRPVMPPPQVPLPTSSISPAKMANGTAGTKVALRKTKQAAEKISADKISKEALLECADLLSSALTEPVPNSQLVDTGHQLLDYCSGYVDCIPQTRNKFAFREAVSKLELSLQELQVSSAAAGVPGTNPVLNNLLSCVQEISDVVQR
- procedure.summary: Kinase Profiling Assay
- Assay type: biochemical
- conditions: peptide 100 μM
Write it as a number; the unit % goes unstated.

q: Specify % activity for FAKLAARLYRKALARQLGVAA [MMI-0300] and stop.
a: 72

q: Fill in reported % activity for this entry: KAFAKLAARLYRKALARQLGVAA [MMI-0400]
a: 84

q: Give the value of % activity reported for the following: YARAAARQARAKALNRQLGVA (Mammal) [MMI-0200]
a: 82

q: Read the entry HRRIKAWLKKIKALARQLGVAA (Mammal) [MMI-0500] and write its reported % activity.
a: 22
